tested on: Plasmodium falciparum; assay: In vitro drug screening model against Plasmodium falciparum (drug sensitivity assay, Malstat LDH read-out); type: cell-based; settings: Plasmodium falciparum; Table 2; P. falciparum, strain not given; 72 h incubation; read-out: IC50
reported_property: IC50 (µg/mL)

I. c1cc(OCCCCCOc2cccc(-c3nc4ccccc4[nH]3)c2)cc(-c2nc3ccccc3[nH]2)c1 [Compound 6]
II. c1ccc2[nH]c(-c3ccc(OCCCOc4ccc(-c5nc6ccccc6[nH]5)cc4)cc3)nc2c1 [Compound 1]
III. c1ccc2[nH]c(-c3ccc(OCCCCCOc4ccc(-c5nc6ccccc6[nH]5)cc4)cc3)nc2c1 [Compound 3]
IV. c1ccc(-c2nc3ccccc3[nH]2)c(OCCCCCOc2ccccc2-c2nc3ccccc3[nH]2)c1 [Compound 7]
Hello, I need these entries ordered by IC50, highest reading first. Thanks! In your reply, arrange the labels in the requested order.
II, IV, I, III

The origin of these recorded values is patent US20100160402A1.
